B1: library; a variant is named by its letters at N, in order (parent)
chain: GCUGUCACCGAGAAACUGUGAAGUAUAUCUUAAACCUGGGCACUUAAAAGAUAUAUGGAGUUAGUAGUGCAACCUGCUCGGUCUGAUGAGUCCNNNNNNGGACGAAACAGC

variants of: B1; assay: normalized RNA/DNA level without ligand (relative to sTRSVctl = 100) (log10 (% of sTRSVctl)); HEK293T; ligand: cyclic di-GMP (c-di-GMP-II aptamer); higher = less ribozyme self-cleavage, higher mRNA level; details: reporter: mCherry (pCS4076), ligand present: no
readout name: normalized RNA/DNA level without ligand (log10)
When you answer, write just the number.

Give its normalized RNA/DNA level without ligand (log10) value. Item: CCUGUA
1.54

Give its normalized RNA/DNA level without ligand (log10) value. Item: CCCCUA
1.56

Give its normalized RNA/DNA level without ligand (log10) value. Item: AAGGGA
1.38

Give its normalized RNA/DNA level without ligand (log10) value. Item: AUCCCU
1.75

Give its normalized RNA/DNA level without ligand (log10) value. Item: CACUCG
1.82

Give its normalized RNA/DNA level without ligand (log10) value. Item: AGACUA
1.55

Give its normalized RNA/DNA level without ligand (log10) value. Item: UAAUGU
1.65

Give its normalized RNA/DNA level without ligand (log10) value. Item: GCCUGU
1.69

Give its normalized RNA/DNA level without ligand (log10) value. Item: CCGCAA
1.45

Give its normalized RNA/DNA level without ligand (log10) value. Item: GUUCAA
1.62

Give its normalized RNA/DNA level without ligand (log10) value. Item: CUGUGC
1.74

Give its normalized RNA/DNA level without ligand (log10) value. Item: CCCCCA
1.71

Give its normalized RNA/DNA level without ligand (log10) value. Item: UCUUGU
1.73

Give its normalized RNA/DNA level without ligand (log10) value. Item: CUUUUG
1.8

Give its normalized RNA/DNA level without ligand (log10) value. Item: GGCUUU
1.73

Give its normalized RNA/DNA level without ligand (log10) value. Item: GUCGCG
1.76

Give its normalized RNA/DNA level without ligand (log10) value. Item: UCUCUA
1.67

Give its normalized RNA/DNA level without ligand (log10) value. Item: UCAUAA
1.47

Give its normalized RNA/DNA level without ligand (log10) value. Item: CGACCU
1.54

Give its normalized RNA/DNA level without ligand (log10) value. Item: UCCUUU
1.75

Give its normalized RNA/DNA level without ligand (log10) value. Item: CACAGU
1.74

Give its normalized RNA/DNA level without ligand (log10) value. Item: ACGUCC
1.75

Give its normalized RNA/DNA level without ligand (log10) value. Item: GAUGAU
1.56

Give its normalized RNA/DNA level without ligand (log10) value. Item: UCCGGA
1.61

Give its normalized RNA/DNA level without ligand (log10) value. Item: AAAUCG
1.54

The reported numbers originate from the supplement of paper PMC6757056.
